Each recorded value in this set is attributed to patent US8026282B2.

Entries and their Ki values follow.
target under test: Opiate δ (Homo sapiens)
Sequence (P41143 whole entry): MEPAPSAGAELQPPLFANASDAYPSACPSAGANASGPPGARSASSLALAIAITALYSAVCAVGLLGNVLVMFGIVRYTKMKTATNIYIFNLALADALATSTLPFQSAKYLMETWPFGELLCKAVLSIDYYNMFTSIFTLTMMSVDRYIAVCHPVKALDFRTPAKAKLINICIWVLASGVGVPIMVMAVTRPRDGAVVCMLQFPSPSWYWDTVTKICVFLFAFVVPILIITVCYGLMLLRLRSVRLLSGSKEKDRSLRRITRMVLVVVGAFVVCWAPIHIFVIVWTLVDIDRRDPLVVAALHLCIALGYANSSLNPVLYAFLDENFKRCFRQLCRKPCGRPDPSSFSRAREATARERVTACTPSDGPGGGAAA
measured parameter: Ki (nM)

compound	measured parameter	reported value
CCCc1c(SCCCOc2ccc(C(C)O)c(OCCCC(=O)O)c2CCC)ccc(C(C)=O)c1O (centres unmarked)	Ki	1070
CCCc1c(SCCCOc2ccc(C(C)=O)c(OCCCC(=O)O)c2CCC)ccc(C(C)=O)c1O	Ki	365

* * *

target under test: Adrenergic β3 (Homo sapiens)
Sequence (P13945 whole entry): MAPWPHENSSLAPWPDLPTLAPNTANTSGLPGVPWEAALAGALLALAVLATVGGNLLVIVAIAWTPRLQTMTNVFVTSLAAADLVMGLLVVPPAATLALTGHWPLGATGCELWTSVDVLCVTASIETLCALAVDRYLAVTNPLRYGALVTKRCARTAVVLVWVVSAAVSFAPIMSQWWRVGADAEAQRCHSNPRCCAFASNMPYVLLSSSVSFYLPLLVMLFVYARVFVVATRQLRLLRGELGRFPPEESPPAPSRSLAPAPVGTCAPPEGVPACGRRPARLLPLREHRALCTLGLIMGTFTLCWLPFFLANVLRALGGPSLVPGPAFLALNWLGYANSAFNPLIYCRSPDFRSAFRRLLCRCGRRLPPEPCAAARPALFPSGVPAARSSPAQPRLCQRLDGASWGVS
measured parameter: IC50 (µM)

compound	target under test	reported value
CCCc1c(SCCCOc2ccc(C(C)=O)c(OCCCC(=O)O)c2CCC)ccc(C(C)=O)c1O [Compound 1]	Adrenergic β3 (Homo sapiens)	4.63

* * *

Heads up, these compounds all have pIC50 values measured for PLA2-I (Sus scrofa).
pIC50: −log10 of the molar value.

compound	target under test	pIC50
CCCc1c(SCCCOc2ccc(C(C)=O)c(OCCCC(=O)O)c2CCC)ccc(C(C)=O)c1O [Compound 1]	PLA2-I (Sus scrofa)	3.85
CCCc1c(SCCCOc2ccc(C(C)O)c(OCCCC(=O)O)c2CCC)ccc(C(C)=O)c1O (centres unmarked) [Compound 2]	PLA2-I (Sus scrofa)	3.61
